Kindly supply the reported kon values for the records listed here.
testedOn: alpha-synuclein fibrils (UniProt P37840 1-140)
procedureSummary: SPR, captured mAb
Answers are plain numbers, in M⁻¹ s⁻¹.

binder	unitAnnotation	kon
ACI-7079-3103G12-Ab2 (antibody, V domains shown, mouse hybridoma mAb; VH/VL only; also called 3103G12D2B10) VH: DVQLQESGPGMVKPSQSLSLTCTVTGYSITSGYDWHWIRHFPGNKLEWMGYITYSGSTNYNPSLKSRISITHDTSKNHFFLKLTSVTTEDTATYYCARDTVDAWFAYWGQGTLVTVSA VL: DVLMTQAPLSLPVSLGDQASISCRSSQSIVHSNGDTYLEWYLQKPGQSPKLLIYKVSNRFSGVPDRFSGSGSGTDFTLKISRVEAEDLGVYYCFQGSHVPPTFGGGTKLEIK	M⁻¹ s⁻¹	25000
ACI-8033-21C8-Ab1 (antibody, V domains shown, mouse hybridoma mAb; VH/VL only; also called 917.21C8E4C8) VH: QVQLQQPGAELVKPGASVKMSCKASGYTFTSYWITWVRQRPGQGLDWIGDIYPGGGVTNYNEKFKTKATLTVDTSSSTAYMHLSSLTSEDSAVYFCATAQTTFAYWGQGTLVTVSA VL: DVLMTQTPLSLPVSLGDQASISCRSSQNIVHNNGNTYLEWYLQKPGQSPKLLIYKVSNRFSGVPDRFSGSGSGTDFTLKISRVEAEDLGVYYCFQGSHVPRTFGGGTKLEIK	M⁻¹ s⁻¹	8810

Memo: ACI-7087-4125E6-Ab1 (antibody, V domains shown, mouse hybridoma mAb; VH/VL only; also called 4125E6D5) VH: QVQLQQPGTELVKPGASVRLSCKASGYAFTSYWMHWVKQRPGQGLEWIGNINPSNGGTNYNEKFKNKATLTVDKSSSTAYMQLSGLTSEDSAVYYCATGLHYWGQGTTLTVSS VL: DIQMTQSPSSLSASLGERVTLTCRASQDIGNYLNWLQQEPDGTIKRLIYATSSLDSGVPKRFSGSRSGSDYSLTISSLESEDFVDYYCLQFASSPLTFGPGTKLELK , reported kon: 11200
